STUDY_TARGET: cPLA2 (cPLA2 group IVA, PLA2G4A) (Homo sapiens, UniProt P47712)
Construct: recombinant, expressed and purified from insect cells
Sequence (P47712 1-749): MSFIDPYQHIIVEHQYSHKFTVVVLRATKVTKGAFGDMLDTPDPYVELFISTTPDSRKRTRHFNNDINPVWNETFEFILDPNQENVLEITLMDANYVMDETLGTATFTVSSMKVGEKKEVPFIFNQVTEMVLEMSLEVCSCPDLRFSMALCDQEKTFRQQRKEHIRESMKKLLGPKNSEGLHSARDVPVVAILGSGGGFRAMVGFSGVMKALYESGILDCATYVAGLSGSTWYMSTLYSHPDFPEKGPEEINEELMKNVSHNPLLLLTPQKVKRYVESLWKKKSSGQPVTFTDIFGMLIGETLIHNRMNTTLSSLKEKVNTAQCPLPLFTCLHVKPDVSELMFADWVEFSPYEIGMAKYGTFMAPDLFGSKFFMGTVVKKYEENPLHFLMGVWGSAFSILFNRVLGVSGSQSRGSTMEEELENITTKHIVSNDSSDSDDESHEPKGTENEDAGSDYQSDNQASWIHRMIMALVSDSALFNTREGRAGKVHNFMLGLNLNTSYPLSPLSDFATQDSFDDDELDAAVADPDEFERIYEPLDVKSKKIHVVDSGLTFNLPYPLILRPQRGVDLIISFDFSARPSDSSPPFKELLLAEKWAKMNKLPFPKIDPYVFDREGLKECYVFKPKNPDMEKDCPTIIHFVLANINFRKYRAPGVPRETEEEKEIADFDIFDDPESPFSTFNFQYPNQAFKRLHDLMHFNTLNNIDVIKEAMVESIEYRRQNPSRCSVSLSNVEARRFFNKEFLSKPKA
MEASUREMENT_DESCRIPTION: biochemical
MEASURED_QUANTITY: IC50

IC50 in this record for CCCCC/C=C\C/C=C\CCCCCCCC(=O)O [linoleic acid] : ~100 µM
